glycan array binding signal (z-score) by entry:
Study Target: Fuc(a1-2)Gal(b1-3)GalNAc
Method Notes: glycan array binding signal (z-score within array); higher = stronger binding
Condition Details: glycan notation: IUPAC condensed, linker removed
The entries come from a sample that favours the strongest signals as a whole.
Value Type: glycan array binding signal (z-score)

* Tim-4 (Mus musculus), Q6U7R4 (protein) MSKGLLLLWLVTELWWLYLTPAASEDTIIGFLGQPVTLPCHYLSWSQSRNSMCWGKGSCPNSKCNAELLRTDGTRIISRKSTKYTLLGKVQFGEVSLTISNTNRGDSGVYCCRIEVPGWFNDVKKNVRLELRRATTTKKPTTTTRPTTTPYVTTTTPELLPTTVMTTSVLPTTTPPQTLATTAFSTAVTTCPSTTPGSFSQETTKGSAFTTESETLPASNHSQRSMMTISTDIAVLRPTGSNPGILPSTSQLTTQKTTLTTSESLQKTTKSHQINSRQTILIIACCVGFVLMVLLFLAFLLRGKVTGANCLQRHKRPDNTEDSDSVLNDMSHGRDDEDGIFTL | -0.114
* SalT (Orysata sativa) (protein) MTLVKIGLWGGNGGSAQDISVPPKKLLGVTIYSSDAIRSIAFNYIGVDGQEYAIGPWGGGEGTSTEIKLGSSEHIKEISGTHGPVYDLADIVTYLKIVTSANNTYEAGVPNGKEFSIPLQDSGHVVGFFGRSGTLIDAIGIYVHPILEQKLISEEDLNSAVDHHHHHH | -0.283
